Assignment: determine reported relative viability for the given molecules.
system: LOU-NH91; test: relative viability (nuclei count vs DMSO), 5 days (fraction); higher = more cells survive; details: first compound 0.04 µM
Numbers only.

Examples from the recorded data:
{"molecule": "Cc1sc2c(c1C)C(c1ccc(Cl)cc1)=N[C@@H](CC(=O)OC(C)(C)C)c1nnc(C)n1-2 [JQ1] + N=C(N)NC(=N)NCCc1ccccc1 [Phenformin] (partner 250 µM)", "relative viability": 0.735}
{"molecule": "Cc1sc2c(c1C)C(c1ccc(Cl)cc1)=N[C@@H](CC(=O)OC(C)(C)C)c1nnc(C)n1-2 [JQ1] + CCNC(=O)c1noc(-c2cc(C(C)C)c(O)cc2O)c1-c1ccc(CN2CCOCC2)cc1 [Luminespib] (partner 0.01 µM)", "relative viability": 0.371}
{"molecule": "Cc1sc2c(c1C)C(c1ccc(Cl)cc1)=N[C@@H](CC(=O)OC(C)(C)C)c1nnc(C)n1-2 [JQ1] + Cc1nc(Nc2ncc(C(=O)Nc3c(C)cccc3Cl)s2)cc(N2CCN(CCO)CC2)n1 [Dasatinib] (partner 0.075 µM)", "relative viability": 0.549}
{"molecule": "Cc1sc2c(c1C)C(c1ccc(Cl)cc1)=N[C@@H](CC(=O)OC(C)(C)C)c1nnc(C)n1-2 [JQ1] + O=C(CCCCCCC(=O)Nc1ccccc1)NO [Vorinostat] (partner 1 µM)", "relative viability": 0.912}

Next:
Query string: GET /values?readout=relative viability&system=LOU-NH91&item= Cc1sc2c(c1C)C(c1ccc(Cl)cc1)=N[C@@H](CC(=O)OC(C)(C)C)c1nnc(C)n1-2 [JQ1] + Cc1cc(Nc2cc(N3CCN(C)CC3)nc(Sc3ccc(NC(=O)C4CC4)cc3)n2)n[nH]1 [Tozasertib] (partner 0.1 µM)
Result string: 0.653

----------
test system: NCI-H1651; assay: relative viability (nuclei count vs DMSO), 5 days (fraction); higher = more cells survive; settings: first compound 1.265 µM
Please provide measured relative viability for the entries that follow.
One number for each entry.

{"compound": "Cc1sc2c(c1C)C(c1ccc(Cl)cc1)=N[C@@H](CC(=O)OC(C)(C)C)c1nnc(C)n1-2 [JQ1] + COc1cc2c(Oc3ccc(NC(=O)C4(C(=O)Nc5ccc(F)cc5)CC4)cc3F)ccnc2cc1OCCCN1CCOCC1 [Foretinib] (partner 0.25 µM)", "tgt": "NCI-H1651", "reported.value": 0.352}
{"compound": "Cc1sc2c(c1C)C(c1ccc(Cl)cc1)=N[C@@H](CC(=O)OC(C)(C)C)c1nnc(C)n1-2 [JQ1] + CS(=O)(=O)N1CCN(Cc2cc3nc(-c4cccc5[nH]ncc45)nc(N4CCOCC4)c3s2)CC1 [Pictilisib] (partner 1 µM)", "tgt": "NCI-H1651", "reported.value": 0.271}

Query string: Can you look up relative viability on NCI-H1651 for Cc1sc2c(c1C)C(c1ccc(Cl)cc1)=N[C@@H](CC(=O)OC(C)(C)C)c1nnc(C)n1-2 [JQ1] + CS(=O)(=O)CCNCc1ccc(-c2ccc3ncnc(Nc4ccc(OCc5cccc(F)c5)c(Cl)c4)c3c2)o1 [Lapatinib] (partner 2 µM) ?
Result string: 0.365

----------
tested on: EBC-1; test: relative viability (nuclei count vs DMSO), 5 days (fraction); higher = more cells survive; conditions: first compound 0.000632 µM
assay.endpoint: relative viability

{"compound": "CC(=O)O[C@@]12CO[C@@H]1C[C@H](O)[C@@]1(C)C(=O)[C@H](O)C3=C(C)[C@@H](OC(=O)[C@H](O)[C@@H](NC(=O)OC(C)(C)C)c4ccccc4)C[C@@](O)([C@@H](OC(=O)c4ccccc4)[C@H]21)C3(C)C [Docetaxel] + CC1(C)CCC(c2ccc(Cl)cc2)=C(CN2CCN(c3ccc(C(=O)NS(=O)(=O)c4ccc(N[C@H](CCN5CCOCC5)CSc5ccccc5)c(S(=O)(=O)C(F)(F)F)c4)cc3)CC2)C1 [Navitoclax] (partner 0.5 µM)", "relative viability": 0.27}
{"compound": "CC(=O)O[C@@]12CO[C@@H]1C[C@H](O)[C@@]1(C)C(=O)[C@H](O)C3=C(C)[C@@H](OC(=O)[C@H](O)[C@@H](NC(=O)OC(C)(C)C)c4ccccc4)C[C@@](O)([C@@H](OC(=O)c4ccccc4)[C@H]21)C3(C)C [Docetaxel] + Cc1nc(NC(=O)N2CCC[C@H]2C(N)=O)sc1-c1ccnc(C(C)(C)C(F)(F)F)c1 [Alpelisib] (partner 2 µM)", "relative viability": 0.576}
{"compound": "CC(=O)O[C@@]12CO[C@@H]1C[C@H](O)[C@@]1(C)C(=O)[C@H](O)C3=C(C)[C@@H](OC(=O)[C@H](O)[C@@H](NC(=O)OC(C)(C)C)c4ccccc4)C[C@@](O)([C@@H](OC(=O)c4ccccc4)[C@H]21)C3(C)C [Docetaxel] + COc1cc2c(Oc3ccc(NC(=O)C4(C(=O)Nc5ccc(F)cc5)CC4)cc3F)ccnc2cc1OCCCN1CCOCC1 [Foretinib] (partner 0.25 µM)", "relative viability": 0.0902}

Query string: Quick check: relative viability of CC(=O)O[C@@]12CO[C@@H]1C[C@H](O)[C@@]1(C)C(=O)[C@H](O)C3=C(C)[C@@H](OC(=O)[C@H](O)[C@@H](NC(=O)OC(C)(C)C)c4ccccc4)C[C@@](O)([C@@H](OC(=O)c4ccccc4)[C@H]21)C3(C)C [Docetaxel] + O=C(c1cc(Cc2n[nH]c(=O)c3ccccc23)ccc1F)N1CCN(C(=O)C2CC2)CC1 [Olaparib] (partner 8 µM) ?
Result string: 0.358
